compounds and their reported pIC50
# target-or-system: PI3Kα (p85iSH2(461-568)-p110α(21-1068)-His, BV1075) (Homo sapiens (Human))
# Sequence (P42336 other isoform, or with tags, fused parts or gaps): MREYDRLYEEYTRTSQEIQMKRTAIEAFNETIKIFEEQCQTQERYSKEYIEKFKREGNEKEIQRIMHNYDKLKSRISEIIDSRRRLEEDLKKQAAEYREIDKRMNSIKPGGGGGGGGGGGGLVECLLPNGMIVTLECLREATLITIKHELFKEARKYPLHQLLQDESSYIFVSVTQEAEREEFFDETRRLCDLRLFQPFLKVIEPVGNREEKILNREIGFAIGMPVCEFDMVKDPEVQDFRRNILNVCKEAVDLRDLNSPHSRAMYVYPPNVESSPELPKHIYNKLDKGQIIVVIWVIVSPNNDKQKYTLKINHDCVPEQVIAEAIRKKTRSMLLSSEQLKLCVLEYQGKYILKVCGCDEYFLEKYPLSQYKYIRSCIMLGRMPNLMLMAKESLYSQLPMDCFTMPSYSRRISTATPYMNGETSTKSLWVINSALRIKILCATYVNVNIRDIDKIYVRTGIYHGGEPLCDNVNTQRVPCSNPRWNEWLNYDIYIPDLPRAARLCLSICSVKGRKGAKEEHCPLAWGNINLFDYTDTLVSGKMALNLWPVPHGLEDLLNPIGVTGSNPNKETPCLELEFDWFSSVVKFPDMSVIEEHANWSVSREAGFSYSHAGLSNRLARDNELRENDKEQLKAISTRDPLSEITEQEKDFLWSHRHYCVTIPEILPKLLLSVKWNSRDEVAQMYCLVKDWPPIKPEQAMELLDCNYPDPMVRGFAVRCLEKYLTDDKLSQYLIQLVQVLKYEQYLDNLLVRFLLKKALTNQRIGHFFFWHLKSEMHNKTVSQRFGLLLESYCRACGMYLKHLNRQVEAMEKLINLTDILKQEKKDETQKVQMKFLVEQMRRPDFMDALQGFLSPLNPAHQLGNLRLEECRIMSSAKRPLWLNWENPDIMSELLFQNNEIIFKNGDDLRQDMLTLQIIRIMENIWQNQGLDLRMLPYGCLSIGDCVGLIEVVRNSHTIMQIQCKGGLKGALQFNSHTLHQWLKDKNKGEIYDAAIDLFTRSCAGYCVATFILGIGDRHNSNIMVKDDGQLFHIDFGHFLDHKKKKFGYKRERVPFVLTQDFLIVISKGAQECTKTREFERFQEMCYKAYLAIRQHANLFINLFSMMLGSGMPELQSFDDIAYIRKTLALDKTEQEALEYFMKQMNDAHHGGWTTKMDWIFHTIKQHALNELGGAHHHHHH
# experiment-description: PI3K KinaseGlo assay, PI3Kalpha
# Assay type: biochemical
# recorded-conditions: KinaseGlo, 1 μM ATP; alpha vs. delta selectivity table
Lab note — pIC50 values are minus log10 of concentrations in M.

Look over these answered cases.
[
  {
    "compound": "Cc1nc(NC(=O)N2CCC[C@@]2(C)C(N)=O)sc1-c1ccnc(C(C)(C)C)n1 [Example 12]",
    "recorded-measurement": 7.82
  },
  {
    "compound": "Cc1nc(NC(=O)N2C[C@@H](F)C[C@H]2C(N)=O)sc1-c1ccnc(C(C)(C)C)n1 [Example 66]",
    "recorded-measurement": 7.40
  },
  {
    "compound": "Cc1nc(NC(=O)N2CC[C@H](O)[C@H]2C(N)=O)sc1-c1ccnc(C(C)(C)C)n1.O=C(O)C(F)(F)F [Example 9]",
    "recorded-measurement": 7.92
  }
]

Attention now shifts to the item below.
// query State its pIC50: Cc1nc(NC(=O)N2C[C@H](N(C)C)C[C@H]2C(N)=O)sc1-c1ccnc(C(C)(C)C)n1 [Example 70]
// result 7.85

* * *

# target-or-system: PI3Kα (p85iSH2(461-568)-p110α(21-1068)-His, BV1075) (Homo sapiens (Human))
# experiment-description: PI3K KinaseGlo assay, PI3Kalpha
# Assay type: biochemical
# recorded-conditions: KinaseGlo, 1 μM ATP, 10 nM enzyme, 30 mins
experimental-readout: pIC50
Lab note — pIC50 values are minus log10 of concentrations in M.

[
  {
    "chemical-smiles": "CCN(Cc1ccccc1)c1nccc(-c2sc(NC(=O)N3CCC[C@@]3(C)C(N)=O)nc2C)n1",
    "pIC50": 6.85
  },
  {
    "chemical-smiles": "CCN(CCOC)c1nccc(-c2sc(NC(=O)N3CCC[C@@]3(C)C(N)=O)nc2C)n1",
    "pIC50": 7.00
  },
  {
    "chemical-smiles": "Cc1nc(NC(=O)N2C[C@H](O)C[C@H]2C(N)=O)sc1-c1ccnc(C(C)(C)C)n1",
    "pIC50": 7.89
  },
  {
    "chemical-smiles": "Cc1nc(NC(=O)N2CCC[C@@]2(C)C(N)=O)sc1-c1ccnc(C2(C#N)CC2)c1",
    "pIC50": 7.77
  },
  {
    "chemical-smiles": "Cc1nc(NC(=O)N2CCC[C@@]2(C)C(N)=O)sc1-c1ccnc(C(C)(C)C(F)(F)F)c1",
    "pIC50": 7.40
  },
  {
    "chemical-smiles": "Cc1nc(NC(=O)N2C[C@@H](F)C[C@H]2C(N)=O)sc1-c1ccnc(C(C)(C)C)n1",
    "pIC50": 7.40
  },
  {
    "chemical-smiles": "Cc1nc(NC(=O)N2C[C@H](O)C[C@@]2(C)C(N)=O)sc1-c1ccnc(C(C)(C)C)n1",
    "pIC50": 7.51
  },
  {
    "chemical-smiles": "COC[C@@]1(C(N)=O)CCCN1C(=O)Nc1nc(C)c(-c2ccnc(C(C)(C)C)n2)s1",
    "pIC50": 7.31
  }
]

// query Fill in pIC50 for `Cc1nc(NC(=O)N2CCC[C@@]2(C)C(N)=O)sc1-c1ccnc(C2(C)CC2)c1` tested with PI3Kα (p85iSH2(461-568)-p110α(21-1068)-His, BV1075) (Homo sapiens (Human)).
// result 7.43

// query Fill in pIC50 for `CCN(CC)c1nccc(-c2sc(NC(=O)N3CC[C@@H]4C[C@@]43C(N)=O)nc2C)n1` tested with PI3Kα (p85iSH2(461-568)-p110α(21-1068)-His, BV1075) (Homo sapiens (Human)).
// result 7.12

// query Fill in pIC50 for `Cc1nc(NC(=O)N2CCC[C@]2(C(N)=O)C(F)F)sc1-c1ccnc(C(C)(C)C)n1` tested with PI3Kα (p85iSH2(461-568)-p110α(21-1068)-His, BV1075) (Homo sapiens (Human)).
// result 6.89

// query Fill in pIC50 for `Cc1nc(NC(=O)N2CCC[C@@]2(C)C(N)=O)sc1-c1ccnc(C2(C(F)(F)F)CC2)c1` tested with PI3Kα (p85iSH2(461-568)-p110α(21-1068)-His, BV1075) (Homo sapiens (Human)).
// result 8.05

// query Fill in pIC50 for `Cc1nc(NC(=O)N2CCC[C@@]2(C)C(N)=O)sc1-c1ccnc(-n2ccnc2C)n1` tested with PI3Kα (p85iSH2(461-568)-p110α(21-1068)-His, BV1075) (Homo sapiens (Human)).
// result 6.68

// query Fill in pIC50 for `CC(C)(c1cc(-c2cnc(NC(=O)N3CCC[C@@]3(C)C(N)=O)s2)ccn1)C(F)(F)F` tested with PI3Kα (p85iSH2(461-568)-p110α(21-1068)-His, BV1075) (Homo sapiens (Human)).
// result 8.10

// query Fill in pIC50 for `CC1(c2cc(-c3sc(NC(=O)N4CCC[C@@]4(C)C(N)=O)nc3Cl)ccn2)CC1` tested with PI3Kα (p85iSH2(461-568)-p110α(21-1068)-His, BV1075) (Homo sapiens (Human)).
// result 7.62

// query Fill in pIC50 for `Cc1nc(NC(=O)N2CCC[C@@]2(C)C(N)=O)sc1-c1ccnc(N(C)CCN(C)C)n1` tested with PI3Kα (p85iSH2(461-568)-p110α(21-1068)-His, BV1075) (Homo sapiens (Human)).
// result 6.60

* * *

# target-or-system: PI3Kα (p85iSH2(461-568)-p110α(21-1068)-His, BV1075) (Homo sapiens (Human))
# experiment-description: PI3K KinaseGlo assay, PI3Kalpha
# Format: biochemical
# recorded-conditions: KinaseGlo, 1 μM ATP, 10 nM enzyme, 30 mins
pIC50: −log10 of the molar value.
Threshold rule: pIC50 greater than or equal to 7 is rule met; below that, rule not met.

// query Exam item: decide whether the reported pIC50 for `Cc1nc(NC(=O)N2C[C@@H](O)C[C@H]2C(N)=O)sc1-c1ccnc(C(C)(C)C)c1` is at least 7.
// result rule met

// query Exam item: decide whether the reported pIC50 for `CCN(CC)c1cc(-c2cnc(NC(=O)N3CCC[C@@]3(C)C(N)=O)s2)ccn1` is at least 7.
// result rule met

// query Exam item: decide whether the reported pIC50 for CCCc1nccn1-c1cc(-c2sc(NC(=O)N3CC(O)CC3C(N)=O)nc2C)ccc1S(C)(=O)=O (centres unmarked) is at least 7.
// result rule not met

// query Exam item: decide whether the reported pIC50 for `Cc1nc(NC(=O)N2CCC[C@@]2(C)C(N)=O)sc1-c1ccnc(C2(C(F)(F)F)CCC2)c1` is at least 7.
// result rule met

// query Exam item: decide whether the reported pIC50 for `Cc1nc(NC(=O)N2C[C@H]3C[C@H]3[C@H]2C(N)=O)sc1-c1ccnc(C(C)(C)C)n1` is at least 7.
// result rule met

// query Exam item: decide whether the reported pIC50 for `CC1(c2cc(-c3cnc(NC(=O)N4CCC[C@@]4(C)C(N)=O)s3)ccn2)CC1` is at least 7.
// result rule met

* * *

# target-or-system: PI3Kα (p85iSH2(461-568)-p110α(21-1068)-His, BV1075) (Homo sapiens (Human))
# experiment-description: PI3K KinaseGlo assay, PI3Kalpha
# Type: biochemical
# recorded-conditions: ratio of PI3Kdelta IC50 to PI3Kalpha IC50
experimental-readout: Selectivity PI3Kalpha vs. PI3Kdelta

Look over these answered cases.
[
  {
    "chemical-smiles": "Cc1nc(NC(=O)N2C[C@@H](F)C[C@H]2C(N)=O)sc1-c1ccnc(C(C)(C)C)n1",
    "target-or-system": "PI3Kα (p85iSH2(461-568)-p110α(21-1068)-His, BV1075) (Homo sapiens (Human))",
    "Selectivity PI3Kalpha vs. PI3Kdelta": "32-fold"
  },
  {
    "chemical-smiles": "Cc1nc(NC(=O)N2CCC[C@@]2(C)C(N)=O)sc1-c1ccnc(C(C)(C)C)n1",
    "target-or-system": "PI3Kα (p85iSH2(461-568)-p110α(21-1068)-His, BV1075) (Homo sapiens (Human))",
    "Selectivity PI3Kalpha vs. PI3Kdelta": "65-fold"
  },
  {
    "chemical-smiles": "Cc1nc(NC(=O)N2CC[C@H](O)[C@H]2C(N)=O)sc1-c1ccnc(C(C)(C)C)n1.O=C(O)C(F)(F)F",
    "target-or-system": "PI3Kα (p85iSH2(461-568)-p110α(21-1068)-His, BV1075) (Homo sapiens (Human))",
    "Selectivity PI3Kalpha vs. PI3Kdelta": "38-fold"
  }
]

Attention now shifts to the item below.
// query State its Selectivity PI3Kalpha vs. PI3Kdelta: `Cc1nc(NC(=O)N2C[C@H](N(C)C)C[C@H]2C(N)=O)sc1-c1ccnc(C(C)(C)C)n1`
// result 246-fold
